Test system: SK-MEL-5 melanoma
Assay summary: NCI tumour cell line growth inhibition, 48 h; in the data active = GI50 below about 0.43 µM; inactive = the rest
Please reply with one of these outcomes: true = active, false = inactive

Known results for molecules:
Query: recorded result category for CCCCCCCCCCCCCCCC(N)c1ccccc1 (stereo unspecified) in this test
false

And `CN1CCN(Cc2ccc(NC(=O)c3[nH]ncc3Nc3cc(OC4CCCC4)ncn3)cc2)CC1` ?
false

And `NC(N)=N/N=C/c1ccc(Br)cc1` ?
false

And `COc1cc2c3c(n(CCCN4CCN(CCO)CC4)c(=O)c2cc1OC)-c1cc2c(cc1C3=O)OCO2` ?
false

And `COc1ccc2c(c1)NC(=O)CN2c1nc(C)nc2ccccc12` ?
true

More entries:
Query: recorded result category for CC1SC(c2cccc(Cl)c2)N(NC(=O)C(O)c2ccccc2)C1=O (stereo unspecified) in this test
false

---

Tested on: NCI/ADR-RES ovarian
Assay summary: NCI tumour cell line growth inhibition, 48 h
Below, each entry is listed with its recorded TGI.
Record the value in µM, omitting the unit from your answer.

Solved entries:
API: value(readout=TGI, system=NCI/ADR-RES ovarian) for record `CN1CCN(Cc2ccc(NC(=O)c3[nH]ncc3Nc3cc(OC4CCCC4)ncn3)cc2)CC1`
15

And `O=S1(=O)C=C(c2ccccc2)C(c2ccccc2)=C1` ?
9.31

And `COc1ccc2c(c1)C(=O)c1c-2n(CCCNCCO)c(=O)c2cc([N+](=O)[O-])ccc12` ?
1.68

And `O=C(N/N=C/c1cccc(O)c1)c1ccc(C(F)(F)F)nc1Nc1cccc(C(F)(F)F)c1` ?
5.93

Continue with the compound presented below.
API: value(readout=TGI, system=NCI/ADR-RES ovarian) for record `N#Cc1c(Nc2ccccc2)[n+]([O-])c2ccc(Cl)cc2[n+]1[O-]`
8.15

---

Tested on: NCI-H23 lung
Assay summary: NCI tumour cell line growth inhibition, 48 h
TGI below 10 µM gives False; TGI at or above it gives True.

Known results for compounds:
Is the recorded value of TGI equal to or greater than 10 µM for this compound? N#CC12CC3(CCC1CCC1(C2)OCCO1)OCCO3 (stereo unspecified)
True

And O=S1Cc2ccccc2CSS1 (stereo unspecified) ?
True

And `CCOC(=O)c1c[nH]c2cc3c(cc2c1=O)CCS3` ?
True

And CC(=O)Nc1ccc(OCC(O)CO)cc1 (stereo unspecified) ?
True

And `N#Cc1c(Nc2ccccc2)[n+]([O-])c2ccc(Cl)cc2[n+]1[O-]` ?
True

And `COc1ccc2c(c1)C(=O)c1c-2n(CCCNCCO)c(=O)c2cc([N+](=O)[O-])ccc12` ?
False

And CNCC1CCn2c(c(C3=C(c4cn(C)c5ccccc45)C(=O)NC3=O)c3ccccc32)C1 (stereo unspecified) ?
False

And `Cc1ccc2c(c1)C/C(=C\c1ccccc1C(=O)O)C2=O` ?
True

More entries:
Is the recorded value of TGI equal to or greater than 10 µM for this compound? `CC(=O)N1CCN(C=S)CC1`
True

And `CCOC(=O)c1c(CN2CCOCC2)n(Cc2ccccc2)c2c1cc(O)c1nc(C)c(C)nc12` ?
True

And `O=c1cc(-c2cccc(Br)c2)[nH]c2cc3c(cc12)OCO3` ?
True

---

System: SNB-75 CNS
Assay summary: NCI tumour cell line growth inhibition, 48 h
Below, each entry is listed with its recorded TGI.

Which TGI reading was recorded for the molecule `CC(=O)Nc1nc(C)c(-c2cc3c(c(S(C)(=O)=O)c2)C(=O)N([C@@H](C)C2CC2)C3)s1` ?
35.6 µM

And O=C(NC(Cc1ccccc1)P(=O)(O)c1ccccc1)OCc1ccccc1 (stereo not drawn) ?
> 100 µM

And `NNC(=O)CSc1nnc(CCCCCCCCc2nnc(SCC(=O)NN)o2)o1` ?
> 100 µM

And `NC(N)=N/N=C/c1ccc(Br)cc1` ?
5.76 µM

And `CC(=O)N1c2ccc(-c3ccc(C(=O)O)cc3)cc2[C@H](Nc2ccc(Cl)cc2)C[C@@H]1C` ?
> 100 µM
